Test system: HCC-78
run description: relative viability (nuclei count vs DMSO), 5 days (fraction); higher = more cells survive
condition info: first compound 2.53 µM
Field: label. Allowed values: yes (1) (relative viability < 0.5) or no (0) (relative viability >= 0.5).

>  <molecule>
O=c1cc(-c2cccc3c2Sc2ccccc2S3)oc(N2CCOCC2)c1 + N=C(N)NC(=N)NCCc1ccccc1 [Phenformin] (partner 250 µM)

>  <assayed system>
HCC-78

>  <group>
no (0)

$$$$
>  <molecule>
O=c1cc(-c2cccc3c2Sc2ccccc2S3)oc(N2CCOCC2)c1 + O=C(CCCCCCC(=O)Nc1ccccc1)NO [Vorinostat] (partner 1 µM)

>  <assayed system>
HCC-78

>  <group>
yes (1)

$$$$
>  <molecule>
O=c1cc(-c2cccc3c2Sc2ccccc2S3)oc(N2CCOCC2)c1 + CC(=O)Nc1cccc(-n2c(=O)n(C3CC3)c(=O)c3c(Nc4ccc(I)cc4F)n(C)c(=O)c(C)c32)c1 [Trametinib] (partner 0.02 µM)

>  <assayed system>
HCC-78

>  <group>
no (0)

$$$$
>  <molecule>
COc1nc(C)cnc1NS(=O)(=O)c1cccnc1-c1ccc(-c2nnco2)cc1 [Zibotentan] + Nc1nc2[nH]cc(CCc3ccc(C(=O)N[C@@H](CCC(=O)O)C(=O)O)cc3)c2c(=O)[nH]1 [Pemetrexed] (partner 0.2 µM)

>  <assayed system>
HCC-78

>  <group>
no (0)

$$$$
>  <molecule>
O=c1cc(-c2cccc3c2Sc2ccccc2S3)oc(N2CCOCC2)c1 + CC(=O)c1c(C)c2cnc(Nc3ccc(N4CCNCC4)cn3)nc2n(C2CCCC2)c1=O [Palbociclib] (partner 0.5 µM)

>  <assayed system>
HCC-78

>  <group>
yes (1)

$$$$
>  <molecule>
COc1nc(C)cnc1NS(=O)(=O)c1cccnc1-c1ccc(-c2nnco2)cc1 [Zibotentan] + NC(=O)Nc1cc(-c2cccc(F)c2)sc1C(=O)N[C@H]1CCCNC1 [AZD7762] (partner 0.2 µM)

>  <assayed system>
HCC-78

>  <group>
yes (1)

$$$$
>  <molecule>
O=c1cc(-c2cccc3c2Sc2ccccc2S3)oc(N2CCOCC2)c1 + C[C@]1(O)C[C@@H](c2nc(-c3ccc4ccc(-c5ccccc5)nc4c3)c3c(N)nccn32)C1 [Linsitinib] (partner 1 µM)

>  <assayed system>
HCC-78

>  <group>
yes (1)

$$$$
>  <molecule>
COc1nc(C)cnc1NS(=O)(=O)c1cccnc1-c1ccc(-c2nnco2)cc1 [Zibotentan] + Cc1nc(NC(=O)N2CCC[C@H]2C(N)=O)sc1-c1ccnc(C(C)(C)C(F)(F)F)c1 [Alpelisib] (partner 2 µM)

>  <assayed system>
HCC-78

>  <group>
yes (1)

$$$$
>  <molecule>
COc1nc(C)cnc1NS(=O)(=O)c1cccnc1-c1ccc(-c2nnco2)cc1 [Zibotentan] + COc1cc2c(Oc3ccc(NC(=O)C4(C(=O)Nc5ccc(F)cc5)CC4)cc3F)ccnc2cc1OCCCN1CCOCC1 [Foretinib] (partner 0.25 µM)

>  <assayed system>
HCC-78

>  <group>
no (0)

$$$$
>  <molecule>
COc1nc(C)cnc1NS(=O)(=O)c1cccnc1-c1ccc(-c2nnco2)cc1 [Zibotentan] + CC(C)C[C@H](NC(=O)[C@H](Cc1ccccc1)NC(=O)c1cnccn1)B(O)O [Bortezomib] (partner 0.002 µM)

>  <assayed system>
HCC-78

>  <group>
yes (1)

$$$$
>  <molecule>
O=c1cc(-c2cccc3c2Sc2ccccc2S3)oc(N2CCOCC2)c1 + NC(=O)Nc1cc(-c2cccc(F)c2)sc1C(=O)N[C@H]1CCCNC1 [AZD7762] (partner 0.2 µM)

>  <assayed system>
HCC-78

>  <group>
no (0)

$$$$
>  <molecule>
COc1nc(C)cnc1NS(=O)(=O)c1cccnc1-c1ccc(-c2nnco2)cc1 [Zibotentan] + Cc1cc(Nc2cc(N3CCN(C)CC3)nc(Sc3ccc(NC(=O)C4CC4)cc3)n2)n[nH]1 [Tozasertib] (partner 0.1 µM)

>  <assayed system>
HCC-78

>  <group>
yes (1)

$$$$
>  <molecule>
O=c1cc(-c2cccc3c2Sc2ccccc2S3)oc(N2CCOCC2)c1 + CS(=O)(=O)N1CCN(Cc2cc3nc(-c4cccc5[nH]ncc45)nc(N4CCOCC4)c3s2)CC1 [Pictilisib] (partner 1 µM)

>  <assayed system>
HCC-78

>  <group>
yes (1)

$$$$
>  <molecule>
COc1nc(C)cnc1NS(=O)(=O)c1cccnc1-c1ccc(-c2nnco2)cc1 [Zibotentan] + N=C(N)NC(=N)NCCc1ccccc1 [Phenformin] (partner 250 µM)

>  <assayed system>
HCC-78

>  <group>
no (0)

$$$$
>  <molecule>
O=c1cc(-c2cccc3c2Sc2ccccc2S3)oc(N2CCOCC2)c1 + Cc1nc(Nc2ncc(C(=O)Nc3c(C)cccc3Cl)s2)cc(N2CCN(CCO)CC2)n1 [Dasatinib] (partner 0.075 µM)

>  <assayed system>
HCC-78

>  <group>
yes (1)

$$$$
>  <molecule>
O=c1cc(-c2cccc3c2Sc2ccccc2S3)oc(N2CCOCC2)c1 + CC1(C)CCC(c2ccc(Cl)cc2)=C(CN2CCN(c3ccc(C(=O)NS(=O)(=O)c4ccc(N[C@H](CCN5CCOCC5)CSc5ccccc5)c(S(=O)(=O)C(F)(F)F)c4)cc3)CC2)C1 [Navitoclax] (partner 0.5 µM)

>  <assayed system>
HCC-78

>  <group>
no (0)

$$$$
